System: MDA-MB-468 breast
Measurement protocol: NCI-60 one-dose screen, 48 h
Measurement setup: 10 µM unless noted
About 83,000 compounds went through this panel and 20% of them were active in at least one assay; those are over-represented in the sample as a whole. Active and inactive are the calls of the source. Rule for the calls: active = growth percent below 10; inactive = the rest.
Outcomes you can answer with include only these: active, inactive

Data request: Query: recorded result category for CCN(CC)CCCC(C)N/C(c1cccc(OC)c1)=c1\c(=O)[nH]n(-c2c3ccccc3nc3ccccc23)c(=O)\c1=C(/NC(C)CCCN(CC)CC)c1cccc(OC)c1 (stereo not given) in this test
Data returned: active

Data request: Assay result, entry O=S(=O)(O)c1ccc(N/N=C/c2ccccc2Cl)cc1 — outcome?
Data returned: inactive

Data request: Any idea what this test logged for OCC1OC(n2cnc3c(Cl)ncnc32)CC1O (stereo not given) ?
Data returned: inactive

Data request: How was O=C(CCCCCCNC(=O)C(O)(O)C(F)(F)F)Nc1nc2ccccc2s1 classified in this test?
Data returned: active

Data request: Fill in: this test's call for COc1cccc(C(=O)CSc2nc(-c3ccc(OCc4ccccc4)c(OC)c3)c(C#N)c(=O)[nH]2)c1 is ___
Data returned: inactive

Data request: Per the records of this test, what outcome belongs to O=C(NNc1nc2cc(F)cc(F)c2n2cccc12)c1cnccn1 ?
Data returned: active

Data request: Hi, sorry to bother you, what did the test record for O=C1CC23OC(C(O)c4ccccc4N12)C1C(c2ccccc2)=NOC13 (stereo not given) ?
Data returned: inactive

Data request: How was O=[N+]([O-])c1c(O)c(CNCCCO)cc(CNCCCO)c1O classified in this test?
Data returned: inactive

Data request: Hi, sorry to bother you, what did the test record for C=CC(=O)Nc1cccc(-c2nc(SC)nc(Nc3ccccc3OC)c2C#N)c1 ?
Data returned: inactive

Data request: Please let me know the test result on file for N#Cc1c(-c2ccccc2)nc2c(c(-c3ccccc3)nn2-c2ccccc2)c1-c1ccc(N2CCCCC2)cc1 .
Data returned: inactive

Data request: Could you please tell me the result logged for CCNC(=O)Oc1ccc(/C(=C(/C)c2ccc(Cl)cc2)c2ccc(OCCN3CCCCCC3)cc2)cc1 in this assay?
Data returned: active

Data request: Call for entry O=C(Oc1ccccc1)c1cc(O)c(O)c(O)c1 :
Data returned: inactive

Data request: GET /call?item= COC(=O)CC1=C(C)/C(=C/c2[nH]c(-c3ccc[nH]3)cc2OC)N=C1C returns the recorded outcome of this test.
Data returned: inactive

Data request: What did this assay record as the result for CCN(CC)CCN1C(=O)c2c(c3c4cccnc4[nH]c3c3ccc4ccccc4c23)C1=O ?
Data returned: inactive

Data request: Status in this test for Cn1cc(-c2cc(N)n3nc(-c4cn(C)c5ccc(Cl)cc45)cc3n2)c2cc(Cl)ccc21 ?
Data returned: inactive

Data request: How did this test come out for O=C(c1ccccc1)c1ccc(Cl)c([N+](=O)[O-])c1 ?
Data returned: inactive

Data request: Hi, do you know how Cc1[nH]c(C2CC(c3ccc(C(F)(F)F)c(F)c3)=NN2c2ccccc2)c(C)c1C(=O)NCC(F)(F)F (stereo not given) came out in this test?
Data returned: inactive

Data request: # lookup: test call for O=C(N/N=C/c1ccc(F)cc1)c1ccccc1Nc1cccc(C(F)(F)F)c1
Data returned: inactive

Data request: What was the test verdict on Cn1c(=O)c2[nH]c(NN)nc2n(C)c1=O ?
Data returned: inactive

Data request: Test call for this molecule, please: Cc1cc(N2CCCC2)nc(NCc2cc(Nc3ccnc4cc(Cl)ccc34)ccc2F)n1
Data returned: active

---

System: SF-295 CNS
Measurement protocol: NCI-60 one-dose screen, 48 h (100 = growth as untreated, 0 = no growth, -100 = all killed)
Measurement setup: 10 µM
Compounds without any hit were thinned out: in the full panel of roughly 83,000, 20% have a hit.
Threshold-based label: growth under 60% gives satisfied, growth not under 60% gives not satisfied.

Data request: Below 60% on growth? Entry C#C[C@]1(O)CC[C@H]2[C@@H]3CC=C4c5sc(Nc6cc(C)cc(C)n6)nc5CC[C@]4(C)[C@H]3CC[C@@]21C
Data returned: satisfied

Data request: Find out if reported growth for COc1cc2oc(-c3cccc(C(=O)Nc4ccc(Cl)cc4)c3)cc(=O)c2c(OCCN)c1OC is less than 60%
Data returned: satisfied

Data request: Say whether its growth is strictly beneath 60%. Entry: Cc1cc(N=C2NC(=O)S/C2=C\c2ccc(F)cc2)n[nH]1
Data returned: satisfied

Data request: Below 60% on growth? Entry O=[N+]([O-])c1cccc(-c2nnc3c(/C=C/c4ccccc4O)nc4ccccc4n23)c1
Data returned: not satisfied

Data request: # TODO verify growth < 60% strictly for this compound: Fc1ccc(-c2csc(Nc3cccc(Nc4nc(-c5ccc(F)cc5)cs4)c3)n2)cc1
Data returned: not satisfied

Data request: Report whether reported growth is lower than 60% (strictly) for Nc1nnc(-c2c[nH]c3ncc(Br)cc23)c(-c2c[nH]c3ccc(Br)cc23)n1
Data returned: satisfied

Data request: Strictly below 60% in growth? Cc1ccc2c(c1)C(=O)/C(=C/c1ccc([N+](=O)[O-])cc1)S2
Data returned: not satisfied

Data request: Bench note: check whether COc1cc(Nc2nc(O)c(/C=C3\C=Nc4ccccc43)s2)cc(OC)c1OC shows growth below 60%
Data returned: satisfied

Data request: In plain terms, does O=C(c1ccc(F)cc1)C(c1c[nH]c2ccccc12)c1c[nH]c2ccccc12 come in under 60% for growth?
Data returned: not satisfied

Data request: Is growth strictly under 60% for the entry O=C(CC(=O)Nc1ccc(Oc2ncnc3scc(Nc4n[nH]c(=S)s4)c23)cc1)Nc1ccc(Br)cc1 ?
Data returned: not satisfied

Data request: Does the reported growth of the following compound sit strictly below 60%? COc1ccc(C2c3sc4ccc(C)cc4c3Oc3nc[nH]c(=O)c32)cc1 (stereo not given)
Data returned: not satisfied

Data request: For this compound, is growth lower than 60%? Fc1ccc(/C=C/c2nc3ccccc3n3c(-c4ccc(Cl)cc4)nnc23)cc1
Data returned: not satisfied

Data request: Please indicate whether the reported growth of CC1(C)CC[C@]2(C(=O)O)CC[C@]3(C)C(=CCC4[C@@]5(C)C[C@@H](O)[C@@H]6OC(c7cccc(F)c7)OC[C@@]6(C)C5CC[C@]43C)C2C1 (stereo not given in full) is strictly below 60%.
Data returned: satisfied

Data request: Record Cc1ccc(S(=O)(=O)N2CCN(S(=O)(=O)c3oc(-c4ccccc4)nc3C#N)CC2)cc1 : is its growth strictly below 60%?
Data returned: not satisfied

Data request: Item COc1ccc(C2c3sc4ccc(C)cc4c3Oc3nc(N)nc(N)c32)cc1 (stereo not given) : growth beneath 60%, strictly?
Data returned: not satisfied

---

Tested on: MDA-MB-468 breast
Measurement protocol: NCI-60 one-dose screen, 48 h
Measurement setup: 10 µM unless noted
About 83,000 compounds went through this panel and 20% of them were active in at least one assay; those are over-represented in the sample as a whole. The source made the active and inactive calls. The calls were made as follows: active = growth percent below 10; inactive = the rest.
Allowed answers: TRUE (active), FALSE (inactive)

Data request: Just curious, what result did CCOC(=O)c1c(NC(=O)c2ccc(C(F)(F)F)cc2)sc2c(CN3CCN(C)CC3)c(O)ccc12 get here?
Data returned: TRUE

Data request: Query: recorded result category for C=C(C)[C@@H]1CC[C@]2(COP(=O)(OCC)OCC)CC[C@]3(C)[C@H](CC[C@@H]4[C@@]5(C)CC[C@H](OP(=O)(OCC)OCC)C(C)(C)[C@@H]5CC[C@]43C)[C@@H]12 in this test
Data returned: FALSE

Data request: Which outcome did this test record for the compound CCN1CCN(c2nc(NNC(=O)c3ccccc3)nc(N3CCN(C(c4ccccc4)c4ccccc4)CC3)n2)CC1 ?
Data returned: TRUE

Data request: So what was the verdict on O=C1OC(c2ccc(-c3ccccc3)cc2)=C/C1=C/C=C/c1ccccc1 in this test?
Data returned: FALSE

Data request: Recorded test call requested for O=C(Nc1cccc(-n2cc(-c3ccncc3)c(-c3ccc(Cl)c(O)c3)n2)c1)Nc1ccc(Cl)c(C(F)(F)F)c1
Data returned: TRUE

Data request: Name the outcome recorded for CCOC(=O)c1[nH]c(C)c(C(C)=O)c1C in the assay.
Data returned: FALSE

Data request: Check the results log: what was the call for O=C1c2c(c3c4ccccc4[nH]c3c3ccc4ccccc4c23)C(=O)N1CCN1CCNCC1 ?
Data returned: FALSE

Data request: Hi, do you know how CCC/C=C(\C)C(C)(C#N)C(=O)OCC (stereo not drawn) came out in this test?
Data returned: FALSE

Data request: // param item: CC(=O)N1N=C(c2ccc(Nc3nc(Nc4ccc(F)cc4)nc(Nc4ccc(Cl)cc4)n3)cc2)CC1c1ccc(Cl)cc1 (stereo not drawn) ; yields the recorded call
Data returned: FALSE

Data request: Please indicate how the test categorized NC(=O)c1c(OCc2c(F)cc(Br)cc2F)nsc1NC(=O)NCCCCN1CCCC1 .
Data returned: TRUE

Data request: What is the recorded call for this compound in the test? CN(C)c1ccc(-c2ccc(-c3ccc(C(=N)N)c(F)c3)s2)cc1
Data returned: TRUE

Data request: Any idea what this test logged for CCCC(=O)c1cc(C)ccc1OC ?
Data returned: FALSE

Data request: Status in this test for O=C(Nc1cccc(Cl)c1)Nc1cc2ncncc2cc1OCc1cccc(F)c1 ?
Data returned: TRUE

Data request: Tell me the recorded outcome of this test for NC(=O)c1cccc(-n2ccc3cc(NC(=O)Nc4ccc(N5CCOCC5)c(C(F)(F)F)c4)ccc32)n1 .
Data returned: TRUE

Data request: Recorded test call requested for C#CCOc1c(OC)cc(C(=O)/C(C)=C/c2cccc(N=[N+]=[N-])c2)cc1OC
Data returned: FALSE

Data request: Could you kindly confirm the outcome this assay logged for CCNc1nc(C(F)(F)F)nc2c1sc(=S)n2-c1ccccc1 ?
Data returned: FALSE

Data request: Hi team, can someone confirm the assay call for COC(=O)C1=C(C)C(=O)CC1 ?
Data returned: FALSE

Data request: What outcome does the record of this test show for CN1c2ccccc2Sc2cc(/C=N/Nc3ccnc4cc(Cl)ccc34)ccc21 ?
Data returned: FALSE

Data request: I'd appreciate the recorded outcome for COc1ccc2nc(-c3c(-c4ccccc4)nc4ncccn34)[nH]c2c1 from this test.
Data returned: FALSE

Data request: Record lookup: outcome of this test for Cc1nnc(/N=C2\NC(=O)/C(=C/c3ccc(N(C)C)cc3)S2)s1 ?
Data returned: FALSE

Data request: // return assay outcome for CC(C)c1ccc2c(c1)CC[C@H]1[C@](C)(C(=O)OCC#CCN3CCCC3)CCC[C@]21C
Data returned: FALSE

Data request: Per the records of this test, what outcome belongs to Cn1nc(CC#N)c2c(=N)n(N)cnc21 ?
Data returned: FALSE

Data request: What is the recorded call for this compound in the test? CCCCCCCCCC[C@@H](C)[C@@H]1CC(=O)N[C@H]([C@@H](C)O)C(=O)N[C@@H](C)C(=O)N[C@H](C)C(=O)N[C@@H](CCC(N)=O)C(=O)N[C@H](Cc2ccc(O)cc2)C(=O)N[C@@H](C(C)CC)C(=O)O1 (stereo partly drawn)
Data returned: TRUE

Data request: Kindly provide the recorded test outcome for the following compound: Brc1cccc(-c2cc(-c3ccc4nccnc4c3)[nH]n2)c1
Data returned: FALSE

Data request: Recorded test call requested for COc1ccc(-c2cc(-c3cc(-c4ccc(OC)cc4)nc(N)n3)nc(N)n2)cc1
Data returned: FALSE

Data request: Per the assay record, what outcome was assigned to C[C@H]1[C@H](C)CC[C@]2(C(=O)Nc3ccc4ncccc4c3)CC[C@]3(C)C(=CC[C@@H]4[C@@]5(C)CCCNC(C)(C)[C@@H]5CC[C@]43C)[C@H]12 ?
Data returned: TRUE

Data request: Look up the recorded call for [2H]c1nc(Nc2ncc(F)c(-c3cc(F)c4nc(C)n(C(C)C)c4c3)n2)c([2H])c([2H])c1CN1CCN(CC)CC1 in this test.
Data returned: FALSE

Data request: What did the test return for COc1cc(C(=O)NN=C2c3ccccc3-c3ccccc32)cc(OC)c1OC ?
Data returned: TRUE

Data request: Which outcome was assigned to CCN(CC)c1ccc(N=O)cc1 in this test?
Data returned: FALSE

Data request: Answer briefly: the call reported for NC(=O)c1c(NC(=O)c2ccccc2)sc2c1CCC(=O)C2 in this assay.
Data returned: TRUE

Data request: Hi, do you know how C#C[C@@]1(O)[C@@H](CO)O[C@@H](n2cnc3c(-c4ccccc4)ncnc32)[C@@H]1O came out in this test?
Data returned: FALSE

Data request: Dear all, I need the recorded test outcome for CCOC(=O)/C(=C\c1ccc(-c2ccccc2)cc1)C(C)=O , thank you.
Data returned: FALSE

Data request: Per the assay record, what outcome was assigned to O=C(CCC(=O)OC1CCCC1)OC1CCCC1 ?
Data returned: FALSE

Data request: Please indicate how the test categorized O=C1Nc2ccccc2SC1C1SC(=S)N(Cc2ccccc2)C1=O (stereo not drawn) .
Data returned: FALSE

Data request: Record lookup: outcome of this test for CCOC(=O)c1c(C(=O)c2cn(C)c3ccc(Br)cc23)c(-c2cn(C)c3ccc(Br)cc23)n(NC(=O)OC(C)(C)C)c1C ?
Data returned: FALSE

Data request: Write down the call the test reported for this compound. Item: COC(=O)c1cccnc1
Data returned: FALSE

Data request: Could you check what this test reported for C=CCn1c(SCC(=O)Nc2ccc(C(=O)/C=C/c3ccc(Cl)cc3)cc2)nnc1-c1ccccc1 ?
Data returned: FALSE

Data request: Short answer needed: outcome of this test for N#C/C(=C\c1ccc(C#N)cc1)C(=O)c1ccccc1 ?
Data returned: FALSE
